Where these numbers come from: PubChem BioAssay (NCATS)

The reader will find reported activity change, negative = inhibition values listed item by item below.
Test: NFAT Signaling Pathway (AID 444);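 further: carbachol stimulus at about its EC50 of 1 µM final; on the % scale 0 is the no-effect control and ±100 the full control effect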
Conditions: Jurkat NFAT-bla M1, carbachol, beta-lactamase ratio, 5 h; at 17.2 µM (top of the series) unless noted
Records with an inconclusive call do not appear.
Give the value in % but do not write % after it.

* Cc1nn(-c2ccccc2)c2c1C(=O)NC(=O)C(C)(C)C2 | 0.783
* Cc1nc(NCCN)c(C#N)c2c1COC(C)(C)C2 | -1.13
* CCOc1c(C)cc2[nH]c(CCC(=O)O)nc2c1C | -1.66
* c1ccc(C2=Nn3c(nnc3-c3ccccn3)SC2)cc1 | -8.45

Look up activity change, negative = inhibition: `OCCOCCNc1ncnc2c1cnn2-c1ccc(Cl)cc1`
0.366

Entry `C=C(C)CSc1nc(N)c2c3c(sc2n1)CCC3` has what activity change, negative = inhibition?
-3.51

Give its activity change, negative = inhibition value. Item: CC(C(=O)N1CCCCC1)N1C(=O)c2ccccc2C1=O (stereo unspecified)
8.42

What value of activity change, negative = inhibition has been recorded for this entry: `CC(C)Oc1ccc(Cc2c(O)nc(NCCCN(C)C)[nH]c2=O)cc1`
3.21

Find the recorded activity change, negative = inhibition belonging to `O=C(NCCN1CCOCC1)c1ccc(=O)oc1` and report it.
8.89

Entry `c1ccc(-n2ncc3c(N4CCCC4)ncnc32)cc1` : reported activity change, negative = inhibition = ?
14.9

# get_value(readout='activity change, negative = inhibition', item= `COc1ccc(CN2CCC(=O)NC2=O)cc1` )
-0.653

----------
The following compounds are listed with their measured activity, negative = inhibition values.
Assay: qHTS profiling for inhibitors of Plasmodium falciparum proliferation (AID 504749); further: nearly all actives have a fitted effect of over 60% in size;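 on activity, negative = inhibition: 0% = DMSO vehicle and full inhibition = artemisinin control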
Details: P. falciparum in erythrocytes, SYBR Green DNA, 72 h; at 28.7 µM (top of the series); parasite line A
Records with an inconclusive call do not appear.
Return type: number; implicit unit %.

- CC1C(=O)C(=O)C=CN1C (centres undefined): 3.53
- Cc1cnc(NC(=O)C2C(=O)c3ccccc3S(=O)(=O)N2C)s1 (centres undefined): -14.2
- O=c1[nH]c(=O)n(C2C[C@H](O)[C@@H](CO)O2)cc1C(F)(F)F (some centres undefined): -3.45

Now look at this one.
Could you tell me which activity, negative = inhibition is on file for CCCCCCCCCCCCCCCC(=O)OCC(COP(=O)(O)OCC[N+](C)(C)C)OC(=O)CCCCCCCCCCCCCCC (centres undefined) ?
-4.13

----------
Test system: CP269
Assay: qHTS profiling for inhibitors of Plasmodium falciparum proliferation (AID 504749); further: nearly all actives have a fitted effect of over 60% in size
Conditions: P. falciparum in erythrocytes, SYBR Green DNA, 72 h; series mostly up to 28.7 µM
Protocol: NIH National Institute of Allergy and Infectious Diseases [NIAID] NIH Chemical Genomics Center [NCGC] […] Because mature erythrocytes lack DNA, only Plasmodium-derived DNA is detected. NCGC Assay Protocol Summary: The SYBR Green viability assay was adapted from a method described previously (Plouffe et al., 2008). […] The following morning, fluorescence intensity at 485(14) nm excitation and 535(25) nm emission wavelengths was measured on an EnVision (Perkin Elmer) plate reader. […]
Records with an inconclusive call do not appear. Activity calls are given as the source filed them. The call rests on the fitted dose curve; in most records, active means well fitted inhibition curve with a large enough effect; inconclusive means small, poorly fitted or top-dose-only effect; inactive means flat fitted curve, though single readings scatter.
Could you please pick one outcome from this set? active, inactive

Here are 5 molecules together with their reported answers.
* CC[C@H](C)[C@H]1O[C@]2(CC[C@@H]1C)C[C@@H]1C[C@@H](C/C=C(\C)[C@H](O[C@@H]3C[C@H](OC)[C@H](O[C@@H]4C[C@H](OC)[C@@H](O)[C@H](C)O4)[C@H](C)O3)[C@@H](C)/C=C/C=C3\CO[C@@H]4[C@H](O)C(C)=C[C@@H](C(=O)O1)[C@]34O)O2 | active
* CC(=O)OCC(=O)[C@@]1(O)CCC2C3CCC4=CC(=O)C=CC4(C)C3C(O)C[C@]21C (stereo partly specified) | inactive
* OCC1O[C@H](Oc2ccc(O)cc2)C(O)C(O)C1O (stereo partly specified) | inactive
* C=C1NC(=O)c2cc(CN(C)c3ccc(C(=O)N[C@@H](CCC(=O)O)C(=O)O)s3)ccc2N1 | inactive
* CCOC(=O)C(CCc1ccccc1)NC(C)C(=O)N1Cc2cc(OC)c(OC)cc2CC1C(=O)O (stereo unspecified) | inactive

Note: attention shifts to another entry.
Status in this test for COc1cccc2c1C(=O)c1c(O)c3c(c(O)c1C2=O)C[C@@](O)(C(=O)CO)C[C@@H]3OC1CC(N)C(O)C(C)O1 (stereo partly specified) ?
active
